- Test system: U2OS
- assaySummary: fractional viability (live cells / total cells); higher = less cell death
- cond: 0.0100433 µM; 72 h
Answer each item with its documented fractional viability.
Answers are plain numbers.

1. COc1cc2nccc(Oc3ccc(NC(=O)C4(C(=O)Nc5ccc(F)cc5)CC4)cc3)c2cc1OC [Cabozantinib] : 0.985
2. CC(C)NC[C@@H](C(=O)N1CCN(c2ncnc3c2[C@H](C)C[C@H]3O)CC1)c1ccc(Cl)cc1 : 0.986
3. CN1CCN(CCOc2cc(OC3CCOCC3)c3c(Nc4c(Cl)ccc5c4OCO5)ncnc3c2)CC1 : 0.987
4. Cc1nn(C)c(COc2ccc(N3CCN(S(=O)(=O)N(C)C)CC3)cc2)c1-c1cccc2c(CCCOc3cccc4ccccc34)c(C(=O)O)n(CCN3CCOCC3)c12 : 0.987
5. N.N.[Cl][Pt][Cl] [Cisplatin] : 0.988

Field: fractional viability. Fill in for each record below.
1. CO[C@H]1C[C@@H]2CC[C@@H](C)[C@@](O)(O2)C(=O)C(=O)N2CCCC[C@H]2C(=O)O[C@H]([C@H](C)C[C@@H]2CC[C@@H](OCCO)[C@H](OC)C2)CC(=O)[C@H](C)/C=C(\C)[C@@H](O)[C@@H](OC)C(=O)[C@H](C)C[C@H](C)/C=C/C=C/C=C/1C
2. COc1cc2c(Oc3ccc4[nH]c(C)cc4c3F)ncnc2cc1OCCCN1CCCC1
3. CC(=O)O[C@@]12CO[C@@H]1C[C@H](O)[C@@]1(C)C(=O)[C@H](O)C3=C(C)[C@@H](OC(=O)[C@H](O)[C@@H](NC(=O)OC(C)(C)C)c4ccccc4)C[C@@](O)([C@@H](OC(=O)c4ccccc4)[C@H]21)C3(C)C
4. CN(C)CC[C@H](CSc1ccccc1)Nc1ccc(S(=O)(=O)NC(=O)c2ccc(N3CCN(Cc4ccccc4-c4ccc(Cl)cc4)CC3)cc2)cc1[N+](=O)[O-]
5. Cc1c(N)nc([C@H](CC(N)=O)NC[C@H](N)C(N)=O)nc1C(=O)N[C@H](C(=O)N[C@H](C)[C@@H](O)[C@H](C)C(=O)N[C@H](C(=O)NCCc1nc(-c2nc(C(=O)NCCC[S+](C)C)cs2)cs1)[C@@H](C)O)[C@@H](OC1OC(CO)C(O)C(O)C1OC1OC(CO)C(O)C(OC(N)=O)C1O)c1cnc[nH]1 (some centres not stated)
6. CCc1cncnc1N1CCN(Cc2nc3ccc(C(F)(F)F)cc3[nH]2)CC1

OUTPUT:
[0.991, 0.986, 0.41, 0.983, 0.99, 0.988]

Field: fractional viability. Fill in for each record below.
1. COc1cc([C@@H]2c3cc4c(cc3[C@@H](O[C@@H]3O[C@@H]5CO[C@@H](C)O[C@H]5[C@H](O)[C@H]3O)[C@H]3COC(=O)[C@H]23)OCO4)cc(OC)c1O [Etoposide]
2. O=C(CCCCCCC(=O)Nc1ccccc1)NO
3. O=C(c1cc(Cc2n[nH]c(=O)c3ccccc23)ccc1F)N1CCN(C(=O)C2CC2)CC1
4. CCN1CCN(Cc2ccc(Nc3ncc(F)c(-c4cc(F)c5nc(C)n(C(C)C)c5c4)n3)nc2)CC1
5. NC(=O)Nc1cc(-c2cccc(F)c2)sc1C(=O)N[C@H]1CCCNC1
6. COc1cccc2c1C(=O)c1c(O)c3c(c(O)c1C2=O)C[C@@](O)(C(=O)CO)C[C@@H]3O[C@H]1C[C@H](N)[C@H](O)[C@H](C)O1

OUTPUT:
1. 0.993
2. 0.991
3. 0.989
4. 0.993
5. 0.992
6. 0.989

Field: fractional viability. Fill in for each record below.
1. Cc1cc(Nc2ncc(Cl)c(Nc3ccccc3S(=O)(=O)C(C)C)n2)c(OC(C)C)cc1C1CCNCC1
2. Cc1nc(NC(=O)N2CCC[C@H]2C(N)=O)sc1-c1ccnc(C(C)(C)C(F)(F)F)c1
3. Nc1cc(C(F)(F)F)c(-c2cc(N3CCOCC3)nc(N3CCOCC3)n2)cn1
4. CC[C@@]1(O)C(=O)OCc2c1cc1n(c2=O)Cc2cc3c(CN(C)C)c(O)ccc3nc2-1
5. O=C1NC(=O)[C@@H](c2cn3c4c(cccc24)CCC3)[C@@H]1c1c[nH]c2ccccc12 [Tivantinib]

OUTPUT:
1. 0.992
2. 0.987
3. 0.986
4. 0.978
5. 0.986

Field: fractional viability. Fill in for each record below.
1. CC(C)[C@@H]1NC(=O)[C@H](C)OC(=O)[C@@H](C(C)C)NC(=O)[C@@H](C(C)C)OC(=O)[C@H](C(C)C)NC(=O)[C@H](C)OC(=O)[C@@H](C(C)C)NC(=O)[C@@H](C(C)C)OC(=O)[C@H](C(C)C)NC(=O)[C@H](C)OC(=O)[C@@H](C(C)C)NC(=O)[C@@H](C(C)C)OC1=O
2. Cc1nc(-c2cn3c(n2)-c2ccc(-c4cnn(C(C)(C)C(N)=O)c4)cc2OCC3)n(C(C)C)n1
3. Cc1cc(C(C)Nc2ccccc2)c2nc(N3CCOCC3)cc(=O)n2c1 (configuration not stated)
4. CS(=O)(=O)N1CCN(Cc2cc3nc(-c4cccc5[nH]ncc45)nc(N4CCOCC4)c3s2)CC1
5. Cc1nc(Nc2ncc(C(=O)Nc3c(C)cccc3Cl)s2)cc(N2CCN(CCO)CC2)n1

OUTPUT:
[0.874, 0.979, 0.988, 0.985, 0.979]
